PROCEDURE_TEXT: interfacial tension towards water as measure of polarity of lipids
Type: physicochemical
ASSAY_SETUP: lipid/oil component against water; regarded as polar if less than 30 mN/m
OBSERVED_PROPERTY: interfacial tension towards water (mN/m)
Answers are plain numbers, in mN/m.

{"MOLECULE": "CCCCCCCCCCCCCCCCCCOC(=O)CCCCCC [TEGOSOFT ® SH, Stearyl Heptanoate]", "OBSERVED_PROPERTY": "interfacial tension towards water", "ENDPOINT_RESULT": 28.7}
{"MOLECULE": "CCCCCCCCCCCCCCCCCC(=O)OC(C)C [Isopropyl stearate, Isopropyl Stearate]", "OBSERVED_PROPERTY": "interfacial tension towards water", "ENDPOINT_RESULT": 21.9}
{"MOLECULE": "CCCCCCCCOC(=O)CCCCCCCCCCCCCCC(C)C [PRISORINE ® 2036, Octyl Isostearate]", "OBSERVED_PROPERTY": "interfacial tension towards water", "ENDPOINT_RESULT": 29.7}
{"MOLECULE": "CCCCCCCCCCCCCCCCCC(=O)OCCCCCCCC [CETIOL ® 868, Octyl Stearate]", "OBSERVED_PROPERTY": "interfacial tension towards water", "ENDPOINT_RESULT": 28.4}
{"MOLECULE": "CCCCCCCCCCCCCC(=O)OCC(CCCCCCCC)CCCCCCCCCC (stereo not drawn) [MOD, Octyldodeceyl Myristate]", "OBSERVED_PROPERTY": "interfacial tension towards water", "ENDPOINT_RESULT": 22.1}

Let us examine a further case.
Consider the molecule CCCCCCCC(=O)OCC(COC(=O)CCCCCCC)OC(=O)CCCCCCC and give its measured interfacial tension towards water.
20.2

Values from patent US20050238679A1
